- measuredTarget: human PI3Kα protein (Homo sapiens)
- Construct: purchased Carna Biosciences, Inc; host or cells: baculovirus expression system
- Sequence (P42336 whole entry): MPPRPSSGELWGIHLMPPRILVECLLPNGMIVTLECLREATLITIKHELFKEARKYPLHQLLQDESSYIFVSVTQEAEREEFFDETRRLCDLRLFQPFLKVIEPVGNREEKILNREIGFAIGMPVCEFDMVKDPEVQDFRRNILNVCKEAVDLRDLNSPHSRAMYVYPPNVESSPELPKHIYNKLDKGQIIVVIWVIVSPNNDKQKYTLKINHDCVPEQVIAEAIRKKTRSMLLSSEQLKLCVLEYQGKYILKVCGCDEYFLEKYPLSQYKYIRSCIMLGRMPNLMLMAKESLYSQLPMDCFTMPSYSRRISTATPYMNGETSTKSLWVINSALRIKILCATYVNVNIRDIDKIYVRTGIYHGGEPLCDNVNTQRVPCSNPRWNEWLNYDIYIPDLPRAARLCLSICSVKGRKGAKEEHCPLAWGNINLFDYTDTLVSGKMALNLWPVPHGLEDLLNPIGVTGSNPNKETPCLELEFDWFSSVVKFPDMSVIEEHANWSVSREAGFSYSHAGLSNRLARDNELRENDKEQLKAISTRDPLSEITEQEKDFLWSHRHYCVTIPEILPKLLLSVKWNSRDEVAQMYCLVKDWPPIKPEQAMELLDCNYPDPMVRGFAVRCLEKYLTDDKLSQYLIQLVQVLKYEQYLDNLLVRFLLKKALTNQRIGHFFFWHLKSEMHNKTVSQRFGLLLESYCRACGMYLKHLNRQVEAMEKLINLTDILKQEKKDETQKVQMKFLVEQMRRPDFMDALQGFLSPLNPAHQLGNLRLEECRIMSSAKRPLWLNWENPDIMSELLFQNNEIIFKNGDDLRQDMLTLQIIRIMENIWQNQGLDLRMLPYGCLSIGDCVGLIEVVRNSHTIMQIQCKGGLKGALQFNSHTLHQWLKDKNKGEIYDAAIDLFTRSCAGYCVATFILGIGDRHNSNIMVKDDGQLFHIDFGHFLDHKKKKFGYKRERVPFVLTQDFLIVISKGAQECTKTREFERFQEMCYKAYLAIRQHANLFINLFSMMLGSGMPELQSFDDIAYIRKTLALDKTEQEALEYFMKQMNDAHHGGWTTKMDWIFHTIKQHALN
- Sequence (P27986 whole entry partner): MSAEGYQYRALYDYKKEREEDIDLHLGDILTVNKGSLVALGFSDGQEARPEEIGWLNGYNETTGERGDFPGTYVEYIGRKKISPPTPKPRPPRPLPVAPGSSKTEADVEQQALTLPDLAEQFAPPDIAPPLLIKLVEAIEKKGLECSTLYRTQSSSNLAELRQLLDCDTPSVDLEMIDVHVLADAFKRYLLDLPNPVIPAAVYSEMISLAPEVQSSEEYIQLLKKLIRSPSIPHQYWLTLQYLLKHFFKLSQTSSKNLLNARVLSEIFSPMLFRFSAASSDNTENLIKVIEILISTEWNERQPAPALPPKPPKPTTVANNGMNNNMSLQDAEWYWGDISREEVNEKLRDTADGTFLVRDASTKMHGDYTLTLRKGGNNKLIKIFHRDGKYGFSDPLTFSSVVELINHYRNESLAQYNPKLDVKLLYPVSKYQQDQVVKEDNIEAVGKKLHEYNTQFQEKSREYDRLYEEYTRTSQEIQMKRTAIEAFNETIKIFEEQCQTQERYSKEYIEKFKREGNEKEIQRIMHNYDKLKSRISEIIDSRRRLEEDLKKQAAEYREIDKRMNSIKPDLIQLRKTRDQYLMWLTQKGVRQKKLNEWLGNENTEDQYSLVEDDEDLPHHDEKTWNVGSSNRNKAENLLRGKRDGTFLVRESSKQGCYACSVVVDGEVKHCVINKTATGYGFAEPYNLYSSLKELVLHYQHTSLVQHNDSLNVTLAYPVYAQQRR
- procedureSummary: PI3Kα enzyme assay (ADP-Glo)
- Assay type: biochemical
- conditionDetails: read-out: PI3Kα enzyme inhibitory activity
pIC50: −log10 of the molar value.
endpointLabel: pIC50

Recorded results for 5 compounds are shown here.
[[record]]
compound = "CC(C)c1cnnc(Nc2ccc3ncc(-n4cnc5ccccc54)cc3n2)c1"
val = "5.00 to 6.00"

[[record]]
compound = "CC(C)c1cnnc(Nc2ccc3ncc(N)cc3n2)c1"
val = "5.00 to 6.00"

[[record]]
compound = "Cc1cn(-c2cnc3ccc(Nc4cc(C(C)C)cnn4)nc3c2)cn1"
val = "> 6.00"

[[record]]
compound = "c1cnnc(Nc2ccc3ncc(-c4cnn(CCCN5CCOCC5)c4)cc3n2)c1"
val = "5.00 to 6.00"

[[record]]
compound = "CC(C)c1cnnc(Nc2ccc3ncc(-c4cnn(CC5CCN(C(=O)N(C)C)CC5)c4)cc3n2)c1"
val = "> 6.00"


Answer for every listed entry: what is its pIC50? The entries follow.
1. c1nc2ccc(Nc3nnc(C4CCOC4)s3)nc2cc1-c1cnn(CCCN2CCCC2)c1 (centres unmarked)
2. CC(C)c1cnnc(Nc2ccc3ncc(-c4cnn(Cc5ccccc5[N+](=O)[O-])c4)cc3n2)c1
3. CC(C)c1cnnc(Nc2ccc3ncc(-c4cn(C)nc4N(C)c4cccnc4)cc3n2)c1

Found:
1: > 6.00; 2: > 6.00; 3: > 6.00
